# Test system: Kocuria rhizophila
# assay comment: Antibacterial activity against Kocuria rhizophila NBRC 12708 after 24 hrs by serial two fold dilution method
# Type: functional
# condition info: NBRC 12708, 24 h
attribute measured: MIC (µg/mL)

Cl.[O-][N+]1=C(C2=C[C@@]3(O)CC/C=C\CCCCN4CC[C@@H]2[C@]2(CC/C=C\CCCCN[C@H]23)C4)c2[nH]c3ccccc3c2CC1    64
Cn1cncc1C(=O)C1=NCCc2c1[nH]c1ccccc21    25
O[C@]12C=C(c3nccc4c3[nH]c3ccccc34)[C@@H]3CCN(CCCC/C=C\CC1)C[C@@]31C[C@@H]3C=C[C@H]4CCC[N@+]43[C@H]12.[Cl-]    16
O[C@@H]1CCCN2[C@@H](CC1)C[C@]13CN4CCCC/C=C\CC[C@](O)(C=C(c5nccc6c5[nH]c5ccccc56)[C@@H]1CC4)[C@H]23 [32,33-DIHYDRO-31-HYDROXYMANZAMINE A]    13
O[C@]12C=C(c3nccc4c3[nH]c3ccccc34)[C@@H]3CCN(CCCC/C=C\CC1)C[C@@]31C[C@@H]3/C=C\CCCCN3[C@H]12    50
Cn1cncc1C(=O)c1nccc2c1[nH]c1ccccc12    25
